Test system: S. epidermidis, 56500

{"compound": "O=C(O)c1cn([C@@H]2C[C@@H]2F)c2c(F)c(N3C[C@@H]4CCCN[C@@H]4C3)c(F)cc2c1=O", "MIC, µg/mL": 0.1}
{"compound": "Cc1c(N2C[C@@H]3CCCN[C@@H]3C2)c(F)cc2c(=O)c(C(=O)O)cn([C@@H]3C[C@@H]3F)c12", "MIC, µg/mL": 0.05}
{"compound": "Nc1c(F)c(N2C[C@H]3NCCO[C@@H]3C2)c(F)c2c1c(=O)c(C(=O)O)cn2[C@@H]1C[C@@H]1F (mixture of isomers)", "MIC, µg/mL": 0.025}
{"compound": "O=C(O)c1cn([C@@H]2C[C@@H]2F)c2c(Cl)c(N3CC4=C(CNC4)C3)c(F)cc2c1=O", "MIC, µg/mL": 0.1}
{"compound": "O=C(O)c1cn([C@@H]2C[C@@H]2F)c2c(Cl)c(N3C[C@@H]4CCCN[C@@H]4C3)c(F)cc2c1=O", "MIC, µg/mL": 0.05}
{"compound": "Nc1c(F)c(N2C[C@@H]3CCCN[C@@H]3C2)c(F)c2c1c(=O)c(C(=O)O)cn2[C@@H]1C[C@@H]1F", "MIC, µg/mL": 0.025}

###

System: E. coli NIHJ
MIC: recorded values

{"compound": "Nc1c(F)c(N2C[C@H]3NCCO[C@@H]3C2)c(F)c2c1c(=O)c(C(=O)O)cn2[C@@H]1C[C@@H]1F (mixture of isomers)", "relation symbol": "=", "MIC (µg/mL)": 0.006}
{"compound": "Cc1c(N2C[C@@H]3CCCN[C@@H]3C2)c(F)cc2c(=O)c(C(=O)O)cn([C@@H]3C[C@@H]3F)c12", "relation symbol": "=", "MIC (µg/mL)": 0.013}
{"compound": "O=C(O)c1cn([C@@H]2C[C@@H]2F)c2c(Cl)c(N3CC4=C(CNC4)C3)c(F)cc2c1=O", "relation symbol": "=", "MIC (µg/mL)": 0.025}
{"compound": "Nc1c(F)c(N2C[C@@H]3CCCN[C@@H]3C2)c(F)c2c1c(=O)c(C(=O)O)cn2[C@@H]1C[C@@H]1F", "relation symbol": "=", "MIC (µg/mL)": 0.006}
{"compound": "O=C(O)c1cn([C@@H]2C[C@@H]2F)c2c(Cl)c(N3C[C@@H]4CCCN[C@@H]4C3)c(F)cc2c1=O", "relation symbol": "≤", "MIC (µg/mL)": 0.003}
{"compound": "O=C(O)c1cn([C@@H]2C[C@@H]2F)c2c(F)c(N3C[C@@H]4CCCN[C@@H]4C3)c(F)cc2c1=O", "relation symbol": "=", "MIC (µg/mL)": 0.013}

###

Pr. vulgaris, 08601 MIC data

{"compound": "Nc1c(F)c(N2C[C@H]3NCCO[C@@H]3C2)c(F)c2c1c(=O)c(C(=O)O)cn2[C@@H]1C[C@@H]1F (mixture of isomers)", "MIC [µg/mL]": 0.025}
{"compound": "Nc1c(F)c(N2C[C@@H]3CCCN[C@@H]3C2)c(F)c2c1c(=O)c(C(=O)O)cn2[C@@H]1C[C@@H]1F", "MIC [µg/mL]": 0.025}
{"compound": "Cc1c(N2C[C@@H]3CCCN[C@@H]3C2)c(F)cc2c(=O)c(C(=O)O)cn([C@@H]3C[C@@H]3F)c12", "MIC [µg/mL]": 0.025}
{"compound": "O=C(O)c1cn([C@@H]2C[C@@H]2F)c2c(F)c(N3C[C@@H]4CCCN[C@@H]4C3)c(F)cc2c1=O", "MIC [µg/mL]": 0.013}
{"compound": "O=C(O)c1cn([C@@H]2C[C@@H]2F)c2c(Cl)c(N3C[C@@H]4CCCN[C@@H]4C3)c(F)cc2c1=O", "MIC [µg/mL]": 0.013}
{"compound": "O=C(O)c1cn([C@@H]2C[C@@H]2F)c2c(Cl)c(N3CC4=C(CNC4)C3)c(F)cc2c1=O", "MIC [µg/mL]": 0.013}
